Please go through the items and note down their Ki.
measured.target: Sodium-dependent serotonin transporter (Homo sapiens, UniProt P31645)
Sequence (P31645 whole entry): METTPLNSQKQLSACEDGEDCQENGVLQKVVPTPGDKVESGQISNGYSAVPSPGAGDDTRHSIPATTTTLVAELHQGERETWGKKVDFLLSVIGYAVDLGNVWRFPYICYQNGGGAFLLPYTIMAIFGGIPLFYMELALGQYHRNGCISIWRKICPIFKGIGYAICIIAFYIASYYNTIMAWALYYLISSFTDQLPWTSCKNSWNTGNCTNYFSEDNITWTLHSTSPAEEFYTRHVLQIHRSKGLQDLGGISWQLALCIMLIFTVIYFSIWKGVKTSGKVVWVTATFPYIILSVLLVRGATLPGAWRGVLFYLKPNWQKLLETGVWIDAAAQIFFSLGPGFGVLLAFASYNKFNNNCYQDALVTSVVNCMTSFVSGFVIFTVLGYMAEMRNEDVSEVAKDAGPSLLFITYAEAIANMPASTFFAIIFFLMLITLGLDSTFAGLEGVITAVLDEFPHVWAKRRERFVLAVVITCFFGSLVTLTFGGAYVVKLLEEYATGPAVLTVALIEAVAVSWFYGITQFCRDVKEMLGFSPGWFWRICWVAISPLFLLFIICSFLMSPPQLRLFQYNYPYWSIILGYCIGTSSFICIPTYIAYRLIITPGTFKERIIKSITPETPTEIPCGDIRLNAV
method.description: Displacement of [3H]citalopram from human recombinant SERT expressed in BacMam virus-transduced cells by scintillation proximity assay
Format: cell-based
One number for each entry, in pM.

For every listed record, write down its Ki.
1. COC[C@@H]1[C@@H]2CNC[C@]12c1ccc(Cl)c(Cl)c1 (racemic)
2. CC(C)OC[C@H]1[C@@H]2CNC[C@@]21c1ccc(Cl)c(Cl)c1 (stereo in doubt)
3. CCC[C@H]1[C@@H]2CNC[C@]12c1ccc(Cl)c(Cl)c1 (racemic)
4. Clc1ccc([C@]23CNC[C@H]2[C@@H]3COC2CCC2)cc1Cl (relative stereo)
5. OC[C@@H]1[C@@H]2CNC[C@]12c1ccc(Cl)c(Cl)c1 (racemic)
6. COCC[C@]1(c2ccc(Cl)c(Cl)c2)[C@@H]2CNC[C@@H]21
7. Clc1ccc([C@]23CNC[C@H]2[C@@H]3COC2CCCC2)cc1Cl (stereo in doubt)
8. COC[C@@H]1[C@H]2CNC[C@]21c1ccc2ccccc2c1 (stereo in doubt)

72400
200
1000
316
51300
316
501
79.4

Ki of COC[C@H]1[C@@H]2CNC[C@@]21c1ccc2ccccc2c1 (stereo in doubt) on Sodium-dependent serotonin transporter (Homo sapiens, UniProt P31645)? 158
